Assay: logP by HPLC on reversed-phase column (EEC Directive 79/831 Annex V.A8)
Settings: HPLC on reversed-phase column (C 18), EEC Directive 79/831 Annex V.A8
quantity: logP
Give only the figure.

Check out these entries, answers already filled in.
molecular.string	experimental.result
Cn1nc(C(F)F)c(C(=O)Nc2ccccc2-c2ccc(F)c(F)c2)c1Cl	3.40
CO/N=C(\C)c1ccc(-c2cccc(NC(=O)c3c(C(F)F)nn(C)c3F)c2)cc1	3.89

Query: Find the recorded logP belonging to Cn1nc(C(F)F)c(C(=O)Nc2ccccc2-c2ccc(C(F)(F)F)cc2)c1Cl and report it.
Reply: 3.94

Query: Now the same for Cn1nc(C(F)F)c(C(=O)Nc2ccccc2-c2ccc(Cl)c(F)c2)c1Cl
Reply: 3.71

* * *

# key: entry, value: Efficacy
System: Cochliobolus miyabeanus
Experiment: Cochliobolus test (rice)/protective
Assay type: in vivo
Details: 250 ppm, protective, evaluated 4 days after inoculation
Field: numeric (%). Do not append units.

Check out these entries, answers already filled in.
compound	Efficacy / %
Cn1nc(C(F)F)c(C(=O)Nc2ccccc2OC(F)(F)C(F)C(F)(F)F)c1Cl (centres unmarked)	80
CC(CC(C)(C)C)c1ccccc1NC(=O)c1c(C(F)F)nn(C)c1F (centres unmarked)	85
CC(C)C1C2CCC1c1c(NC(=O)c3c(C(F)F)nn(C)c3Cl)cccc12 (centres unmarked)	90
Cn1nc(C(F)F)c(C(=O)Nc2ccc(F)cc2-c2ccc(Cl)c(F)c2)c1Cl	93
CC(C)OCc1cccc(NC(=O)c2c(C(F)F)nn(C)c2F)c1	80
Cn1nc(C(F)F)c(C(=O)Nc2ccccc2-c2ccc(Br)cc2)c1F	95

Query: Please state recorded Efficacy (tested on Cochliobolus miyabeanus) of Cn1nc(C(F)F)c(C(=O)Nc2ccccc2-c2ccc(Cl)c(F)c2)c1Cl
Reply: 95

* * *

Experiment: logP by HPLC on reversed-phase column (EEC Directive 79/831 Annex V.A8)
Conditions: HPLC on a reversed-phase column (C 18), EEC Directive 79/831 Annex V.A8
# key: entry, value: logP

Check out these entries, answers already filled in.
molecular.string	experimental.result
Cc1cc(Cl)ccc1Oc1cccc(NC(=O)c2c(C(F)F)nn(C)c2F)c1	4.19
Cn1nc(C(F)F)c(C(=O)Nc2ccc(-c3cc(Cl)cc(Cl)c3)cc2)c1Cl	4.72
Cn1nc(C(F)F)c(C(=O)Nc2ccc(Cl)cc2)c1F	2.70
Cn1nc(C(F)F)c(C(=O)Nc2cccc(Oc3ccccc3)c2)c1Cl	3.56
Cn1nc(C(F)F)c(C(=O)Nc2ccc(-c3ccccc3)cc2)c1F	3.33

# context switch: different compound, same logP
Query: Find the recorded logP belonging to Cn1nc(C(F)F)c(C(=O)Nc2cccc(OCc3ccccc3)c2)c1F and report it.
Reply: 3.35

* * *

Tested on: Alternaria solani
Experiment: Alternaria test (tomato)/preventive
Format: in vivo
Conditions: 500 ppm, preventive, evaluated 7 days after inoculation
quantity: Efficacy (%)
Field: numeric (%). Do not append units.

Check out these entries, answers already filled in.
compound	Efficacy / %
Cn1nc(C(F)F)c(C(=O)Nc2ccccc2-c2ccc(Cl)cc2)c1Cl [Example 88]	94
Cn1nc(C(F)F)c(C(=O)Nc2ccccc2-c2ccc(Br)c(Cl)c2)c1F [Example 152]	94

Query: Find the recorded Efficacy belonging to Cn1nc(C(F)F)c(C(=O)Nc2ccc(F)cc2-c2ccc(F)cc2)c1F [Example 77] and report it.
Reply: 95

Query: Now the same for Cn1nc(C(F)F)c(C(=O)Nc2ccccc2-c2cccc(Cl)c2)c1F [Example 86]
Reply: 95

Query: Now the same for Cn1nc(C(F)F)c(C(=O)Nc2ccccc2-c2ccc(Cl)c(F)c2)c1F [Example 100]
Reply: 80

Query: Now the same for Cn1nc(C(F)F)c(C(=O)Nc2ccccc2-c2ccc(Br)cc2Cl)c1F [Example 155]
Reply: 95

Query: Now the same for CC1CC(C)(C)c2cccc(NC(=O)c3c(C(F)F)nn(C)c3Cl)c21 (stereo not drawn) [Example 65]
Reply: 80

Query: Now the same for Cn1nc(C(F)F)c(C(=O)Nc2cccc3c2C2CCC3C2=C(Cl)Cl)c1F (stereo not drawn) [Example 72]
Reply: 70

Query: Now the same for Cn1nc(C(F)F)c(C(=O)Nc2ccccc2C(C)(C)C)c1F [Example 3]
Reply: 94

* * *

Test system: Uromyces appendiculatus
Conditions: 100 ppm, beans, preventive, evaluated 10 days after inoculation
quantity: Efficacy (%)
Field: numeric (%). Do not append units.

Check out these entries, answers already filled in.
compound	quantity	units.text	experimental.result
CC(CC(C)(C)C)c1ccccc1NC(=O)c1c(C(F)F)nn(C)c1Cl (centres unmarked)	Efficacy	%	100
Cn1nc(C(F)F)c(C(=O)Nc2ccccc2-c2ccc(Br)c(Cl)c2)c1Cl	Efficacy	%	100
Cn1nc(C(F)F)c(C(=O)Nc2ccccc2C2CC2C2CC2)c1Cl (single isomer, unassigned) [Example 48]	Efficacy	%	100
CC(C)CC(C)c1ccccc1NC(=O)c1c(C(F)F)nn(C)c1F (centres unmarked)	Efficacy	%	100

Query: Find the recorded Efficacy belonging to Cn1nc(C(F)F)c(C(=O)Nc2ccc(F)cc2-c2ccc(Cl)cc2)c1Cl and report it.
Reply: 100

Query: Now the same for Cn1nc(C(F)F)c(C(=O)Nc2ccccc2-c2ccc(Cl)c(Cl)c2)c1Cl
Reply: 96

Query: Now the same for Cn1nc(C(F)F)c(C(=O)Nc2ccccc2-c2cccc(Cl)c2)c1F
Reply: 100

Query: Now the same for Cn1nc(C(F)F)c(C(=O)Nc2ccc(F)cc2-c2ccc(Cl)c(Cl)c2)c1Cl
Reply: 100

* * *

Test system: Fusarium nivale (var. majus)
Assay: Fusarium nivale (var. majus)-test (wheat)/preventive
Conditions: 500 ppm, preventive, evaluated 5 days after inoculation
quantity: Efficacy (%)
Field: numeric (%). Do not append units.

molecule	Efficacy (%)
Cn1nc(C(F)F)c(C(=O)Nc2cccc(Oc3cccc(C(F)(F)F)c3)c2)c1Cl	100
Cc1cc(C)c(-c2cccc(NC(=O)c3c(C(F)F)nn(C)c3Cl)c2)c(C)c1	75
CC1CC(C)(C)c2cccc(NC(=O)c3c(C(F)F)nn(C)c3Cl)c21 (centres unmarked)	86

# context switch: different molecule, same Efficacy
Query: Find the recorded Efficacy belonging to Cn1nc(C(F)F)c(C(=O)Nc2cccc(-c3ccc(Cl)cc3)c2)c1Cl and report it.
Reply: 100

* * *

Assay: logP by HPLC on reversed-phase column (EEC Directive 79/831 Annex V.A8)
Settings: HPLC on reversed-phase column (C 18), EEC Directive 79/831 Annex V.A8
quantity: logP
Give only the figure.

Check out these entries, answers already filled in.
compound	quantity	experimental.result
Cc1cc(C)c(-c2cccc(NC(=O)c3c(C(F)F)nn(C)c3F)c2)c(C)c1	logP	4.34
CCCC(C)c1ccccc1NC(=O)c1c(C(F)F)nn(C)c1F (centres unmarked)	logP	3.55
Cn1nc(C(F)F)c(C(=O)Nc2ccccc2-c2ccc(C(C)(C)C)cc2)c1Cl	logP	5.14
Cn1nc(C(F)F)c(C(=O)Nc2cc(Cl)ccc2SCC(F)(F)F)c1F	logP	3.92

Query: Find the recorded logP belonging to Cn1nc(C(F)F)c(C(=O)Nc2cccc(-c3cccc(OC(F)(F)F)c3)c2)c1Cl and report it.
Reply: 4.31

* * *

# key: entry, value: Efficacy
System: Fusarium nivale (var. majus)
Assay: Fusarium nivale (var. majus)-test (wheat)/preventive
Settings: 500 ppm, preventive, evaluated 5 days after inoculation

compound	Efficacy
Cn1nc(C(F)F)c(C(=S)Nc2ccccc2-c2ccc(Cl)c(F)c2)c1Cl [Example 101]	100%
Cn1nc(C(F)F)c(C(=S)Nc2ccccc2CC[Si](C)(C)C)c1Cl [Example 25]	88%

Query: Please state recorded Efficacy (tested on Fusarium nivale (var. majus)) of Cn1nc(C(F)F)c(C(=O)Nc2cccc3c2C2CCC3C2=C(Cl)Cl)c1Cl (centres unmarked) [Example 71]
Reply: 94%

Query: Now the same for Cn1nc(C(F)F)c(C(=O)Nc2ccccc2-c2ccc(Br)c(Cl)c2)c1Cl [Example 153]
Reply: 93%

Query: Now the same for Cn1nc(C(F)F)c(C(=O)Nc2ccccc2-c2ccc(Cl)c(F)c2)c1Cl [Example 99]
Reply: 100%

* * *

System: Fusarium nivale (var. majus)
Assay: Fusarium nivale (var. majus)-test (wheat)/preventive
Settings: dose of 250 ppm and 500 ppm of active ingredient

compound	tested.target	protection
CCCCCc1ccccc1NC(=O)c1c(C(F)F)nn(C)c1Cl	Fusarium nivale (var. majus)	at least 70%
Cn1cc(C(=O)Nc2cccc3c2C2CCC3C2=C(Cl)Cl)c(C(F)F)n1 (stereo not shown) [A1.1 from WO-2008/131901, reference compound]	Fusarium nivale (var. majus)	at least 70%

* * *

Experiment: logP by HPLC on reversed-phase column (EEC Directive 79/831 Annex V.A8)
Settings: HPLC on reversed-phase column (C 18), EEC Directive 79/831 Annex V.A8
// f strictly below 4 in logP; t otherwise

compound	discrete.label
CC(C)Oc1ccc(-c2cccc(NC(=O)c3c(C(F)F)nn(C)c3Cl)c2)cc1 [compound 224]	t
CO/N=C(\C)c1ccc(-c2ccccc2NC(=O)c2c(C(F)F)nn(C)c2F)cc1 [compound 129]	f

Query: Dear colleague, could you confirm whether Cc1ccccc1Oc1ccccc1NC(=O)c1c(C(F)F)nn(C)c1Cl [compound 161] has logP at or above 4?
Reply: t

Query: Now the same for Cn1nc(C(F)F)c(C(=O)Nc2cccc(-c3ccc([Si](C)(C)C)cc3)c2)c1Cl [compound 240]
Reply: t
